biological target: Muscarinic acetylcholine receptor M3 (Homo sapiens, UniProt P20309)
Sequence (P20309 whole entry): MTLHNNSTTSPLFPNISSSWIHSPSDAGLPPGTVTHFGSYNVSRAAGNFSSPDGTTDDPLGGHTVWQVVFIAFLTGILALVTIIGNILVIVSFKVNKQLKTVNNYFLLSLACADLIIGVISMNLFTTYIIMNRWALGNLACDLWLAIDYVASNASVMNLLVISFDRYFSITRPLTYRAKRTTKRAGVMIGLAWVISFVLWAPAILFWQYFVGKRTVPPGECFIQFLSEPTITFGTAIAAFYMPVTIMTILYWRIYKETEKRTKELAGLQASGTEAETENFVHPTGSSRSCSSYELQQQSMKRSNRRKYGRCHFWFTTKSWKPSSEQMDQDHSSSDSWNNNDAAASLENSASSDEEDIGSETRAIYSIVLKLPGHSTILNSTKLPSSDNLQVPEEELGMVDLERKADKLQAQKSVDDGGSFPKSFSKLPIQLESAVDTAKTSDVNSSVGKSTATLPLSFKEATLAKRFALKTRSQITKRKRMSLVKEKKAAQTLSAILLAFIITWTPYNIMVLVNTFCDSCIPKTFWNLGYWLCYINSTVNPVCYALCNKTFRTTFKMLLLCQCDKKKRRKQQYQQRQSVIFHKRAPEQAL
pKi: −log10 of the molar value.
pKi of 9 or higher: met. Under 9: not met.

{"columns": ["Smi", "Experimental System", "Assigned Label"],
 "data": [
  ["CN1[C@@H]2CC[C@H]1C[C@@H](CC(CO)(c1ccccc1)c1ccccc1)C2", "Muscarinic acetylcholine receptor M3 (Homo sapiens, UniProt P20309)", "not met"],
  ["CN1[C@@H]2CC[C@H]1C[C@@H](CC(C#N)(c1ccccc1)c1ccccc1)C2", "Muscarinic acetylcholine receptor M3 (Homo sapiens, UniProt P20309)", "met"],
  ["CN1[C@@H]2CC[C@H]1C[C@@H](CC(O)(c1ccccc1)c1ccccc1)C2", "Muscarinic acetylcholine receptor M3 (Homo sapiens, UniProt P20309)", "not met"],
  ["C[N+]1(C)[C@@H]2CC[C@H]1C[C@@H](CC(O)(c1ccccc1)c1ccccc1)C2.[Br-]", "Muscarinic acetylcholine receptor M3 (Homo sapiens, UniProt P20309)", "not met"],
  ["C[N+]1(C)[C@@H]2CC[C@H]1C[C@@H](CC(C#N)(c1ccccc1)c1ccccc1)C2.[Br-]", "Muscarinic acetylcholine receptor M3 (Homo sapiens, UniProt P20309)", "met"]
]}

Problem: Tell me whether pKi is at least 9 here: C[N+]1(C)[C@@H]2CC[C@H]1C[C@@H](CC(CO)(c1ccccc1)c1ccccc1)C2.[Br-]
Solution: not met

###

Below, each entry is listed with its recorded pKi.
target: Muscarinic acetylcholine receptor M1 (Homo sapiens, UniProt P11229); experiment: Displacement of [3H]N-methyl Scopolamine from human cloned muscarinic M1 receptor expressed in CHO cell membrane; assay type: cell membranes
Sequence (P11229 whole entry): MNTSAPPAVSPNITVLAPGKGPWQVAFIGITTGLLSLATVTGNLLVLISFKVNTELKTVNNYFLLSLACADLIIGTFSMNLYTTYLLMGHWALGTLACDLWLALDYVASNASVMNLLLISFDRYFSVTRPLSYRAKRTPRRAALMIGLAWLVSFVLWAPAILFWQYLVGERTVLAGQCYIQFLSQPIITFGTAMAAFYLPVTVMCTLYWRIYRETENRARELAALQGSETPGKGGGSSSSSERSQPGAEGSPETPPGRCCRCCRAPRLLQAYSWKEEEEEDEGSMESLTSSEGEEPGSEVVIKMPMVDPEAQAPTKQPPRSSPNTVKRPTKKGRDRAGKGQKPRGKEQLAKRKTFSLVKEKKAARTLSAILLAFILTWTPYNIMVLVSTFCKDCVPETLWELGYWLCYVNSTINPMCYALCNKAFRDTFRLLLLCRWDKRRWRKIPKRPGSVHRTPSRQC
Scale explanation: pKi corresponds to minus log10 of a concentration expressed in moles per litre.

{"columns": ["Smi", "Data Value"],
 "data": [
  ["CN1[C@@H]2CC[C@H]1C[C@@H](CC(C#N)(c1ccccc1)c1ccccc1)C2", 10.00],
  ["C[N+]1(C)[C@@H]2CC[C@H]1C[C@@H](CC(O)(c1ccccc1)c1ccccc1)C2.[Br-]", 8.80]
]}

The value of pKi measured for the molecule CN1[C@@H]2CC[C@H]1C[C@@H](CC(CO)(c1ccccc1)c1ccccc1)C2 turned out to be 9.00

The value of pKi measured for the molecule C[N+]1(C)[C@@H]2CC[C@H]1C[C@@H](CC(CO)(c1ccccc1)c1ccccc1)C2.[Br-] turned out to be 8.90

The value of pKi measured for the molecule C[N+]1(C)[C@@H]2CC[C@H]1C[C@@H](CC(C#N)(c1ccccc1)c1ccccc1)C2.[Br-] turned out to be 10.30

The value of pKi measured for the molecule CN1[C@@H]2CC[C@H]1C[C@@H](CC(O)(c1ccccc1)c1ccccc1)C2 turned out to be 9.30

###

Below, each entry is listed with its recorded Kb.
biological target: Muscarinic acetylcholine receptor M2 (Homo sapiens); assay: Antagonist activity against human cloned muscarinic M2 receptor expressed in CHO cells assessed as inhibition of acetylcholine-induced calcium mobilization by measuring ratio of acetylcholine EC50 in presence and absence of compound by FLIPR assay; assay type: functional, cell-based; settings: read-out: pA2 (converted)
Sequence (P08172 whole entry): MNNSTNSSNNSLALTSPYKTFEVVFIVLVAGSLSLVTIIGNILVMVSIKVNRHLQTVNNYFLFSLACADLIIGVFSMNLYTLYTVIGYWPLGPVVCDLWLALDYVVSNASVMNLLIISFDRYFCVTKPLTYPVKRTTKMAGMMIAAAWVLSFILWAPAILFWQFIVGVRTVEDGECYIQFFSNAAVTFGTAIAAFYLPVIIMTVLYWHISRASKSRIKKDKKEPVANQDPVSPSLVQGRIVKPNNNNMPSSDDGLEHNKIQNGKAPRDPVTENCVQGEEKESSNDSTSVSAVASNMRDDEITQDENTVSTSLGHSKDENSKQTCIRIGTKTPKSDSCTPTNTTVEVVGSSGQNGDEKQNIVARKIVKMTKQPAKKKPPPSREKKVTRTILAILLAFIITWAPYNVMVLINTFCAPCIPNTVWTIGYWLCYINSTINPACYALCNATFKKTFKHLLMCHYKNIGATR
Form entry: value (nM) — number only.

Answered cases to consult:
{"columns": ["Smi", "Unit Info", "Kb"],
 "data": [
  ["CN1[C@@H]2CC[C@H]1C[C@@H](CC(CO)(c1ccccc1)c1ccccc1)C2", "nM", 6.31],
  ["CN1[C@@H]2CC[C@H]1C[C@@H](CC(C#N)(c1ccccc1)c1ccccc1)C2", "nM", 0.316],
  ["C[N+]1(C)[C@@H]2CC[C@H]1C[C@@H](CC(CO)(c1ccccc1)c1ccccc1)C2.[Br-]", "nM", 5.01],
  ["C[N+]1(C)[C@@H]2CC[C@H]1C[C@@H](CC(O)(c1ccccc1)c1ccccc1)C2.[Br-]", "nM", 0.501],
  ["C[N+]1(C)[C@@H]2CC[C@H]1C[C@@H](CC(C#N)(c1ccccc1)c1ccccc1)C2.[Br-]", "nM", 0.0501]
]}

The value of Kb measured for the molecule CN1[C@@H]2CC[C@H]1C[C@@H](CC(O)(c1ccccc1)c1ccccc1)C2 turned out to be 3.98
